# protocol-details: pharmacokinetics in male Sprague-Dawley rats
# settings: rat, in vivo, iv, 1 mg/kg
attribute-measured: clearance (L/h/kg)
Numbers only, in L/h/kg.

Ask: Value lookup for clearance; key = `COc1ccc(C(=O)NCc2cc(C(C)C)no2)cc1OC1CCN(C)CC1`
Reply: 6.42

* * *

# protocol-details: pharmacokinetics in male Sprague-Dawley rats
# settings: rat, in vivo, iv, 1 mg/kg
attribute-measured: half-life (min)
Give bare numbers, in min.

Ask: Value lookup for half-life; key = COc1ccc(C(=O)NCc2cc(C(C)C)no2)cc1OC1CCN(C)CC1 [ML352]
Reply: 30

* * *

# protocol-details: brain tissue distribution in Sprague-Dawley rats
# Type: in vivo
# settings: male, rat, brain/plasma, iv, 1 mg/kg
attribute-measured: Kp at […]
One number for each entry.

Ask: Value lookup for Kp at […]; key = `COc1ccc(C(=O)NCc2cc(C(C)C)no2)cc1OC1CCN(C)CC1`
Reply: 0.2

* * *

# protocol-details: pharmacokinetics in male Sprague-Dawley rats
# settings: rat, plasma, po, 2.3 mg/kg
attribute-measured: bioavailability (%)
Give bare numbers, in %.

Ask: Value lookup for bioavailability; key = COc1ccc(C(=O)NCc2cc(C(C)C)no2)cc1OC1CCN(C)CC1 [ML352]
Reply: 22

* * *

# protocol-details: pharmacokinetics in male Sprague-Dawley rats
# settings: rat, plasma, iv, 1 mg/kg
attribute-measured: AUC (ng·h/mL)
Answers are plain numbers, in ng·h/mL.

Ask: Value lookup for AUC; key = `COc1ccc(C(=O)NCc2cc(C(C)C)no2)cc1OC1CCN(C)CC1`
Reply: 150

* * *

# tested-on: P450 2D6 (Homo sapiens, UniProt P10635)
# Sequence (P10635 whole entry): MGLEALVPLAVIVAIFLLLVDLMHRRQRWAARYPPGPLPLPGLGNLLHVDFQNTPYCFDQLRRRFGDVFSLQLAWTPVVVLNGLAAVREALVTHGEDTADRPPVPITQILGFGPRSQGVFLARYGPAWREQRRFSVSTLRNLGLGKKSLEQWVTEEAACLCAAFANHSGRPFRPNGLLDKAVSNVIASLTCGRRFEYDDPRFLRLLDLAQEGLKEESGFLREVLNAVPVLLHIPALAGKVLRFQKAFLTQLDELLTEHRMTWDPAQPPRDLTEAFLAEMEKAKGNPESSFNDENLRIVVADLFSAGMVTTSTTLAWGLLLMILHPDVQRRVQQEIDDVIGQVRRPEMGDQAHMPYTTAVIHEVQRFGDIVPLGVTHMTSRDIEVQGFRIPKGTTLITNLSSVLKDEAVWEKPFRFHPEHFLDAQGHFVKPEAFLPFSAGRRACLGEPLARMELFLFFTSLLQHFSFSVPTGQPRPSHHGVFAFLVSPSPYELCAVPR
pIC50: −log10 of the molar value.
attribute-measured: pIC50

Ask: Value lookup for pIC50; key = COc1ccc(C(=O)NCc2cc(C(C)C)no2)cc1OC1CCN(C)CC1 [ML352]
Reply: < 4.52

* * *

# tested-on: hCHT (Homo sapiens, UniProt Q9GZV3)
# Sequence (Q9GZV3 1-580): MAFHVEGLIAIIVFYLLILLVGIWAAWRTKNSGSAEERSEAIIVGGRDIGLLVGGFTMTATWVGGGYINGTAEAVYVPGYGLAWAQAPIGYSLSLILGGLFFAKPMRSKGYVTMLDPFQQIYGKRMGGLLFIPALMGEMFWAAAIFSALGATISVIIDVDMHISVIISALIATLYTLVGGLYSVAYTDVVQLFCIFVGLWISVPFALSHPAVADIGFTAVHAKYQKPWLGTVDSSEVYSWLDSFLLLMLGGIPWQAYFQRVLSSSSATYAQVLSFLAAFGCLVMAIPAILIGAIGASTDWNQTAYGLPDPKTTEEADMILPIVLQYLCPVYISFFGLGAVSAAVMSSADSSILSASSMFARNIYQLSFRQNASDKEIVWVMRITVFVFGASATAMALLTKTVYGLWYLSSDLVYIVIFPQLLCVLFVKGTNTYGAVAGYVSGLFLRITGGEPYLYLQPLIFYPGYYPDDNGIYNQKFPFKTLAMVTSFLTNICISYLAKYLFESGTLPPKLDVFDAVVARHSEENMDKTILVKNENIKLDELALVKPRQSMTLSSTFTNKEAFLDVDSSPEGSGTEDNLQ
attribute-measured: pKd
One number for each entry, as −log10 of the molar value.

Ask: Value lookup for pKd; key = C[N+]1(C)CCOC(O)(c2ccc(-c3ccc(C4(O)C[N+](C)(C)CCO4)cc3)cc2)C1 (stereo not shown) [HC-3, hemicholinium-3, reference compound]
Reply: 8.07
